All values here come from ChEMBL document CHEMBL1201862.

test system: HCT-15
Outcome Measure: GI50

Solved entries:
Cc1ccc(C#CS(=O)(=O)C(F)(F)F)cc1: > 100 µM
COc1ccc(Cl)cc1NC(=O)c1cccc([N+](=O)[O-])c1O: 21.8 µM

// next item, GI50 requested
Write down the reported GI50 of `CN(C)c1ccc(/C=C(\NC(=O)c2ccccc2)C(=O)Nc2cccc(C(=O)NCCCO)c2)cc1` , test system: HCT-15.
> 100 µM

----------
test system: OVCAR-4; assay: NCI tumour cell line growth inhibition, 48 h
Active and inactive are the calls of the source. No stated cut-off is given here; in the data, active = GI50 up to about 1.1 µM and inactive = higher.
Pick one: active, inactive

O=C1Cc2c(-c3cccs3)cc(-c3ccccc3)nc2-c2ccccc2N1: active
CCOC(=O)/C(=C\NC(C)(C)C)c1nc2ccccc2o1: inactive
Cc1c(C(=O)OCc2ccccc2)[n+]([O-])c2cc(Cl)c(Cl)cc2[n+]1[O-]: inactive
Cc1nn(C)c2c1C(=O)N(C)CC(=O)N2C: inactive
CC(NNC(=O)CC(=O)N(C(=O)c1ccccc1)c1ccc(Cl)cc1)c1cc2ccccc2oc1=O (centres undefined): inactive

Assay result, entry `Cc1nc2ccccc2c(=O)n1/N=C(\N=N\c1ccccc1)c1ccccc1Cl` — outcome?
inactive

Assay result, entry C[C@]12CC[C@@H]3c4ccc(OC(=O)c5ccccc5)cc4CC[C@H]3[C@@H]1CCC2OC(=O)c1cccc2c(=O)c3ccccc3[nH]c12 (some centres undefined) — outcome?
inactive

Assay result, entry `CC(C)N1[C@@H]2CCCC[C@H]2N(C(C)C)P1(=O)C(=O)/C=C/c1ccccc1` — outcome?
inactive

Assay result, entry C=CCC12CC(=O)C=C1CCC1(C2)OCCO1 (centres undefined) — outcome?
inactive

Assay result, entry `NC(=O)c1ccc(NS(=O)(=O)c2ccc(N)cc2)nc1` — outcome?
inactive

Assay result, entry CC(=O)OC12c3ccccc3C(c3ccccc31)C1C(=O)N(c3ccccc3O)C(=O)C12 (centres undefined) — outcome?
inactive

Assay result, entry `CCSc1cc2c(cc1O)CC[C@@H]1[C@@H]2CC[C@]2(C)[C@@H](O)CC[C@@H]12` — outcome?
inactive

Assay result, entry O=C1CC2C=CC1C2CO (centres undefined) — outcome?
inactive

Assay result, entry CC(C)(C)c1cc(C(=O)C2Cc3ccccc3C(=O)O2)cc(C(C)(C)C)c1O (centres undefined) — outcome?
inactive

----------
system: SW-620; test: NCI tumour cell line growth inhibition, 48 h
Activity calls are given as the source filed them. Cut-off read from the data, not from the text of the source: active = GI50 up to about 1.1 µM and inactive = higher.
Pick one: active, inactive

CCC1OC2C(CC=C(C)C)=C3OC(C)(O)C(C)(CC)C(OC(C)=O)C3=C3OC(=O)C=C1C32 (configuration not stated): inactive
N=C(N)SC(c1ccccc1)c1ccccc1: inactive
COc1ccc(Cl)cc1NC(=O)c1cccc([N+](=O)[O-])c1O: inactive
c1ccc2c(c1)CC1COc3ccccc3C1O2 (configuration not stated): inactive

Assay result, entry `CSc1ncnc2c1ncn2CCC#N` — outcome?
inactive

Assay result, entry `COc1ccc2c(c1)C(=O)Cc1ccccc1CC2` — outcome?
inactive

Assay result, entry `N#Cc1c(O)c(C=O)c(=O)n2c1[nH]c1ccccc12` — outcome?
inactive

Assay result, entry `CN(C)CCOc1ccc2c(c1)C/C(=C/c1ncc([N+](=O)[O-])n1C)C2=O` — outcome?
inactive

Assay result, entry COc1cc2c(oc(=O)c3cc(C)cc(OC)c32)c2c(C3OC(C)C(O)C(C)(O)C3O)ccc(O)c12 (configuration not stated) — outcome?
active
